// reported Response Area for each item listed
- System: Panc 04.03
- Experimental Details: 72-hour CellTiter-Glo 2.0 growth inhibition screen (single agent, 9x9 combination dose matrix)
- Type: cell-based
- Condition Notes: Panc 04.03, Pancreas; Additional Single Agent Responses (inhibition, % I), 72 h
Could you respond with only the numeric value?

Examples with answers:
CN1CC[C@@H](c2c(O)cc(O)c3c(=O)cc(-c4ccc(C(F)(F)F)cc4Cl)oc23)[C@@H]1CO [MEI-522(Voruciclib)] = 2.65
CC[C@@H]1C(=O)N(C)c2cnc(Nc3ccc(C(=O)N[C@H]4CC[C@H](N5CCN(CC6CC6)CC5)CC4)cc3OC)nc2N1C(C)C [Volasertib] = 2.78
CN1CCN(c2ccc(OC(F)(F)F)c(Nc3ncc4c(n3)-c3c(c(C(N)=O)nn3CCO)CC4)c2)CC1 [Onvansertib] = 1.94

The record that follows has no Response Area shown yet.
INPUT: Could you please provide reported Response Area for C=CC(=O)N1CCN(c2nc(=O)n(-c3c(C)ccnc3C(C)C)c3nc(-c4c(O)cccc4F)c(F)cc23)[C@@H](C)C1 [AMG510] ? Thanks!
OUTPUT: 0.00

###

- Experimental Details: PK of voruciclib, 2 weeks of daily dosing followed by 1 week without dosing in a 21-day cycle (Table 3)
- Type: in vivo, human
- Condition Notes: human, plasma, oral, 300 mg, Day 13, 2 weeks daily dosing/1 week off, n = 1; read-out: Vz/F
Parameter: Vd/F (L)
Please give a number only; it is taken to be in L.

INPUT: Return the recorded Vd/F value; entry: CN1CC[C@@H](c2c(O)cc(O)c3c(=O)cc(-c4ccc(C(F)(F)F)cc4Cl)oc23)[C@@H]1CO [Voruciclib]
OUTPUT: 185

###

- Experimental Details: PK of voruciclib, daily dosing continuously (Table 4)
- Type: in vivo
- Condition Notes: human, plasma, oral, 350 mg, Day 1, daily dosing continuously, median
Parameter: Tmax (h)
Numbers only; they are read as h.

INPUT: State its Tmax: `CN1CC[C@@H](c2c(O)cc(O)c3c(=O)cc(-c4ccc(C(F)(F)F)cc4Cl)oc23)[C@@H]1CO`
OUTPUT: 6

###

- Experimental Details: PK of voruciclib, daily dosing continuously (Table 4)
- Type: in vivo
- Condition Notes: human, plasma, oral, 350 mg, Day 15, daily dosing continuously, mean
Parameter: Cmax (ng/mL)
I only need the number, in ng/mL, no unit after it.

INPUT: Tell me its Cmax given `CN1CC[C@@H](c2c(O)cc(O)c3c(=O)cc(-c4ccc(C(F)(F)F)cc4Cl)oc23)[C@@H]1CO` as the entry.
OUTPUT: 1490

###

- Experimental Details: PK of voruciclib, daily dosing continuously (Table 4)
- Assay type: in vivo
- Condition Notes: human, plasma, oral, 250 mg, Day 1, daily dosing continuously, mean; read-out: AUC0-t
Parameter: AUC(0-t) (ng·h/mL)
// return numeric value only (unit: ng·h/mL, not printed)

INPUT: Assign AUC(0-t) to the following record: `CN1CC[C@@H](c2c(O)cc(O)c3c(=O)cc(-c4ccc(C(F)(F)F)cc4Cl)oc23)[C@@H]1CO`
OUTPUT: 6110

###

- Experimental Details: PK of voruciclib, daily dosing continuously (Table 4)
- Assay type: in vivo
- Condition Notes: human, plasma, oral, 150 mg, Day 15, daily dosing continuously, n = 1; read-out: t½ (converted)
Parameter: half-life (h)
Report the value in h with no unit label.

INPUT: Please indicate half-life recorded for `CN1CC[C@@H](c2c(O)cc(O)c3c(=O)cc(-c4ccc(C(F)(F)F)cc4Cl)oc23)[C@@H]1CO`
OUTPUT: 132
